Hello, the source for this data is PubChem BioAssay, in case you need it.

Target Entity: Follistatin (Homo sapiens) (UniProt P19883)
Sequence (P19883 whole entry, looked up): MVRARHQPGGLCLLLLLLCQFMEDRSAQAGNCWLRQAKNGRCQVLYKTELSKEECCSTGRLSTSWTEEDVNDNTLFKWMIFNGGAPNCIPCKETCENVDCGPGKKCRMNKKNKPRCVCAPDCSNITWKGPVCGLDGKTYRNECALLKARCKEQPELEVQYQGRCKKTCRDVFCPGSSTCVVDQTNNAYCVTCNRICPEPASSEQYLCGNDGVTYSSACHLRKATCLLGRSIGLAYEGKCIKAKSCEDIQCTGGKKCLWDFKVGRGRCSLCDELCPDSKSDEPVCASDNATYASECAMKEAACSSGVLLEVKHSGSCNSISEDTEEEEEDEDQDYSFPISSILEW
Experiment: follistatin binders on small-molecule microarrays, primary screen, biochemical, small-molecule microarray, 635/667 nm fluorescence (AID 1132)
Study Conditions: FST binding, 635 nm fluorescence, higher = more signal
Recorded composite z-score, one value per entry.
Measured Quantity: composite z-score

1. CCN(CC)c1ccc(N2CC=CC34O[C@@H]5C=CCCOC(=O)C5[C@H]3C(=O)N(CCCCCO)[C@@H]4C2=O)cc1 (some centres undefined)	-0.0495
2. CC(C)OC(=O)CC(=O)CC(O)c1ccc(C#N)cc1 (centres undefined)	-0.337
3. O=C1O[C@H](c2ccccc2)[C@H](c2ccccc2)N2[C@H]1[C@@H](C(=O)N1CCN(c3ncccn3)CC1)[C@]1(C(=O)Nc3ccccc31)[C@H]2c1ccc(OCCO)cc1	1.34
4. O=C(CS)NCCCCCCNC(=O)[C@H]1C[C@H]2C(=O)NCC(=O)N2[C@H]1c1ccc(O)cc1	1.11
